We begin with a simple list: items and their reported pIC50.
# Assay target: GSK3b (GST-full length GSK3b) (Homo sapiens, UniProt P49841)
# Construct: GST-full length GSK3b: [SignalChem G08-9G]; purchased SignalChem G08-9G
# Sequence (P49841 whole entry): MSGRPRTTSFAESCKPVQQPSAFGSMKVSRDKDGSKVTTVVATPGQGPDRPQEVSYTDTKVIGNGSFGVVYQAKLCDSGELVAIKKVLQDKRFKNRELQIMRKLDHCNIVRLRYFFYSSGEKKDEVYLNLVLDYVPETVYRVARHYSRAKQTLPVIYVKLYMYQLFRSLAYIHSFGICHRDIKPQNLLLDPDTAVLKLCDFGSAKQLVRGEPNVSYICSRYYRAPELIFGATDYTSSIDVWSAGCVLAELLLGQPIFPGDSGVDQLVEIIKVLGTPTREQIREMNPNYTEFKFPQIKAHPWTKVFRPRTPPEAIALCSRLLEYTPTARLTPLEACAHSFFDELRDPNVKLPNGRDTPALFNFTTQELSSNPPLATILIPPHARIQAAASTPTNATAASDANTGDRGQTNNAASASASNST
# Assay method text: GSK3b TR-FRET kinase inhibition assay
# Format: biochemical
# Test parameters: 1 mM ATP; Table 3; read-out: GSK3b TR-FRET 1 mM ATP Average IC50
pIC50: −log10 of the molar value.

- Molecule: "CC1(C)CC(=O)C2=C(C1)Nc1ncc(C(C)(C)C)cc1C2(C)c1ccccc1 (single isomer, unassigned) [Compound 124A]"
  pIC50: "4.70 to 5.30"
- Molecule: "CC1(C)CC(=O)C2=C(C1)Nc1ncc(C(F)(F)F)cc1C2(C)c1cccc(S(C)(=O)=O)c1 (single isomer, unassigned) [Compound 157A]"
  pIC50: "6.00 to 7.00"
- Molecule: "CC1(C)CC(=O)C2=C(C1)Nc1ncc(C(F)(F)F)c(C#N)c1C2(C)c1ccccc1 (single isomer, unassigned) [Compound 137B]"
  pIC50: "5.30 to 6.00"
- Molecule: "CC(C)(C)Cc1cncc(F)c1-c1cccc(C2(C)C3=C(CC(C)(C)CC3=O)Nc3ncc(F)cc32)c1 (single isomer, unassigned) [Compound 173A]"
  pIC50: "5.30 to 6.00"
- Molecule: "CC1(C)CC(=O)C2=C(C1)Nc1ncc(F)cc1C2(C)c1cccc(S(C)(=O)=O)c1 (single isomer, unassigned) [Compound 139B]"
  pIC50: "4.70 to 5.30"

----------
We begin with a simple list: items and their reported IC50.
# Assay target: GSK3b (GST-full length GSK3b) (Homo sapiens, UniProt P49841)
# Construct: GST-full length GSK3b: [SignalChem G08-9G]; purchased SignalChem G08-9G
# Assay method text: GSK3b TR-FRET kinase inhibition assay
# Format: biochemical
# Test parameters: 1 mM ATP; Table 5; read-out: GSK3β TR-FRET 1 mM ATP Average IC50

- Compound: "CC1(C)CC(=O)C2=C(C1)Nc1ncc(F)c(C#N)c1C2(C)c1cccc(-c2ccncc2CC(F)(F)F)c1 (single isomer, unassigned) [656B]"
  IC50: "≤ 0.1 µM"
- Compound: "CC(C)Oc1cccc(C2(C)C3=C(CC(C)(C)CC3=O)Nc3ncc(C(F)(F)F)cc32)c1 (single isomer, unassigned) [648A]"
  IC50: "1 to 5 µM"
- Compound: "Cn1ncc2c3c(ncc21)NC1=C(C(=O)CC(C)(C)C1)C3(C)c1cccc(S(C)(=O)=O)c1 (single isomer, unassigned) [649B]"
  IC50: "5 to 20 µM"
- Compound: "CC(=O)c1cnc2c(c1C#N)C(C)(c1ccccc1)C1=C(CC(C)(C)CC1=O)N2 (single isomer, unassigned) [621A]"
  IC50: "5 to 20 µM"
- Compound: "CC1(C)CC(=O)C2=C(C1)Nc1ncc(F)cc1C2(C)c1cccc(C(F)F)c1 (single isomer, unassigned) [623B]"
  IC50: "0.1 to 1 µM"
- Compound: "CC1(C)CC2=C(C(=O)N1)C(C)(c1cccc(S(C)(=O)=O)c1)c1cc(F)cnc1N2 (single isomer, unassigned) [638B]"
  IC50: "5 to 20 µM"

----------
# Tested on: MDR1-MDCK cell monolayers
# Assay method text: MDR1/MDCK permeability assay
# Format: in vitro ADME
# Test parameters: Papp B-A/A-B; Table 3
We begin with a simple list: items and their reported MIDCK Permeability (MDR1-MDCK); Mean; P. Ratio(B-A/A-B) Efflux Ratio.
Measured attribute: MIDCK Permeability (MDR1-MDCK); Mean; P. Ratio(B-A/A-B) Efflux Ratio

- Compound: "CC1(C)CC(=O)C2=C(C1)Nc1ncccc1C2(C)c1ccccc1 (single isomer, unassigned) [Compound 101A]"
  Assay result: 0.72
- Compound: "CC1(C)CC(=O)C2=C(C1)Nc1ncc(F)cc1C2(C)c1cccc(S(C)(=O)=O)c1 (single isomer, unassigned) [Compound 139A]"
  Assay result: 144
- Compound: "CC1(C)CC(=O)C2=C(C1)Nc1ncc(F)cc1C2(C)c1ccccc1 (single isomer, unassigned) [Compound 107B]"
  Assay result: 0.61
- Compound: "CCC1(c2cccc(-c3c(F)cncc3OC)c2)C2=C(CC(C)(C)CC2=O)Nc2ncc(F)cc21 (single isomer, unassigned) [Compound 161A]"
  Assay result: 0.59
- Compound: "CC1(C)CC(=O)C2=C(C1)Nc1ncc(F)c(C#N)c1C2(C)c1ccccc1 (single isomer, unassigned) [Compound 121A]"
  Assay result: 2.9
- Compound: "CC(C)(C)Cc1cnc2c(c1)C(C)(c1ccccc1)C1=C(CC(C)(C)CC1=O)N2 (single isomer, unassigned) [Compound 129B]"
  Assay result: 0.59
- Compound: "CC1(C)CC(=O)C2=C(C1)Nc1nccc(C#N)c1C2(C)c1ccccc1 (single isomer, unassigned) [Compound 108A]"
  Assay result: 3.2
- Compound: "CCC1(c2cccc(-c3c(F)cncc3OC)c2)C2=C(CC(C)(C)CC2=O)Nc2ncccc21 (single isomer, unassigned) [Compound 154A]"
  Assay result: 0.62
- Compound: "CCC1(c2ccccc2)C2=C(CC(C)(C)CC2=O)Nc2ncccc21 (single isomer, unassigned) [Compound 102A]"
  Assay result: 0.87
- Compound: "CC(C)(C)Cc1cnccc1-c1cccc(C2(C)C3=C(CC(C)(C)CC3=O)Nc3ncc(F)cc32)c1 (single isomer, unassigned) [Compound 168A]"
  Assay result: 0.90
- Compound: "CC(C)(C)Cc1cnc2c(c1)C(C)(c1ccccc1)C1=C(CC(C)(C)CC1=O)N2 (single isomer, unassigned) [Compound 129A]"
  Assay result: 0.60
- Compound: "CCC1(c2ccccc2)C2=C(CC(C)(C)CC2=O)Nc2ncc(F)cc21 (single isomer, unassigned) [Compound 114A]"
  Assay result: 0.68
- Compound: "CC1(C)CC(=O)C2=C(C1)Nc1ncc(C(F)(F)F)cc1C2(C)c1ccccc1 (single isomer, unassigned) [Compound 128B]"
  Assay result: 0.53

----------
# Tested on: MDR1-MDCK cell monolayers
# Assay method text: MDR1/MDCK permeability assay
# Format: in vitro ADME
# Test parameters: Papp B-A/A-B; Table 4
We begin with a simple list: items and their reported MDCK Permeability (MDR1-MDCK); Mean; P. Ratio(B-A/A-B) Efflux Ratio.
Measured attribute: MDCK Permeability (MDR1-MDCK); Mean; P. Ratio(B-A/A-B) Efflux Ratio

- Compound: "CCC1(c2cccc(O)c2)C2=C(CC(C)(C)CC2=O)Nc2ncc(F)cc21 (single isomer, unassigned) [Compound 1010A]"
  Assay result: 51
- Compound: "CCC1(c2ccccc2)C2=C(CC(C)(C)NC2=O)Nc2ncc(F)cc21 (single isomer, unassigned) [Compound 1007B]"
  Assay result: 5.7
- Compound: "CCC1(c2cccc(-c3cncn3C(C)C)c2)C2=C(CC(C)(C)CC2=O)Nc2ncc(F)cc21 (single isomer, unassigned) [Compound 1038B]"
  Assay result: 49
- Compound: "CCC1(c2ccccc2)C2=C(CC3(CCC3)CC2=O)Nc2ncc(F)cc21 (single isomer, unassigned) [Compound 1008A]"
  Assay result: 1.2
- Compound: "CCC1(c2cccc(-c3cc(C)ncc3C)c2)C2=C(CC(C)(C)CC2=O)Nc2ncccc21 (single isomer, unassigned) [Compound 1027B]"
  Assay result: 5.8
- Compound: "CCC1(c2ccccc2)C2=C(CC(C)(C)CC2=O)Nc2ncccc21 (single isomer, unassigned) [102 A]"
  Assay result: 2.9
- Compound: "CCC1(c2ccccc2)C2=C(Nc3ncccc31)C(F)C(C)(C)CC2=O (single isomer, unassigned) [Compound 1006C]"
  Assay result: 1.8
- Compound: "CCC1(c2ccccc2)C2=C(CC3(CCC3)CC2=O)Nc2ncc(F)cc21 (single isomer, unassigned) [Compound 1008B]"
  Assay result: 1.5
- Compound: "CCC1(c2cccc(-c3cc(C)nn3C)c2)C2=C(CC(C)(C)CC2=O)Nc2ncccc21 (single isomer, unassigned) [Compound 1024B]"
  Assay result: 11
- Compound: "CCC1(c2ccccc2)C2=C(CC(C)(C)CC2=O)Nc2ncc(F)cc21 (single isomer, unassigned) [Compound 114B]"
  Assay result: 2.1
- Compound: "CCC1(c2ccccc2)C2=C(CC(C)(C)CC2=O)Nc2ncc(C(F)(F)F)cc21 (single isomer, unassigned) [Compound 133B]"
  Assay result: 1.5
- Compound: "CCC1(c2cccc(-c3ccnc(C)c3C)c2)C2=C(CC(C)(C)CC2=O)Nc2ncccc21 (single isomer, unassigned) [147 B]"
  Assay result: 3.8
- Compound: "CCC1(c2ccccc2)C2=C(CC3(CCC3)CC2=O)Nc2ncccc21 (single isomer, unassigned) [Compound 110A]"
  Assay result: 1.4
- Compound: "CCC1(c2cccc(-c3cncn3C(C)C)c2)C2=C(CC(C)(C)CC2=O)Nc2ncccc21 (single isomer, unassigned) [Compound 149A]"
  Assay result: 18
- Compound: "CCC1(c2ccccc2)C2=C(CC3(CCC3)CC2=O)Nc2ncccc21 (single isomer, unassigned) [Compound 110B]"
  Assay result: 2.1
- Compound: "CCC1(c2cccc(-c3ccncc3OC)c2)C2=C(CC(C)(C)CC2=O)Nc2ncc(F)cc21 (single isomer, unassigned) [Compound 1037B]"
  Assay result: 9.6
- Compound: "CCC1(c2cccc(-c3cncn3C(C)C)c2)C2=C(CC(C)(C)CC2=O)Nc2ncc(F)cc21 (single isomer, unassigned) [Compound 1038A]"
  Assay result: 43
- Compound: "CCC1(c2cccc(O)c2)C2=C(CC(C)(C)CC2=O)Nc2ncccc21 (single isomer, unassigned) [Compound 1004B]"
  Assay result: 65
- Compound: "CCC1(c2cccc(-c3ccnc4c3CCCC4)c2)C2=C(CC(C)(C)CC2=O)Nc2ncccc21 (single isomer, unassigned) [Compound 1039B]"
  Assay result: 3.3
- Compound: "CCC1(c2cccc(-c3ccnn3C)c2)C2=C(CC(C)(C)CC2=O)Nc2ncc(F)cc21 (single isomer, unassigned) [Compound 1025A]"
  Assay result: 9.1
- Compound: "CCC1(c2cccc(-c3c(F)cncc3OC)c2)C2=C(CC(C)(C)CC2=O)Nc2ncccc21 (single isomer, unassigned) [Compound 154B]"
  Assay result: 8.3
- Compound: "CCC1(c2cccc(-c3ccnc4c3CCCC4)c2)C2=C(CC(C)(C)CC2=O)Nc2ncc(F)cc21 (single isomer, unassigned) [Compound 165B]"
  Assay result: 5.5
- Compound: "CCC1(c2cccc(-c3c(F)cncc3OC)c2)C2=C(CC(C)(C)CC2=O)Nc2ncc(F)cc21 (single isomer, unassigned) [Compound 161B]"
  Assay result: 6.4
- Compound: "CCC1(c2cccc(-c3ccncc3C)c2)C2=C(CC(C)(C)CC2=O)Nc2ncccc21 (single isomer, unassigned) [Compound 1020B]"
  Assay result: 1.8
- Compound: "CCC1(c2cccc(-c3c(C)nn(C)c3C)c2)C2=C(CC(C)(C)CC2=O)Nc2ncccc21 (single isomer, unassigned) [Compound 150B]"
  Assay result: 9.9
